# MIC80 values compiled below
Test system: Candida albicans
Experiment: Antifungal activity against Candida albicans ATCC 24433 overexpressing ADCDR1-GFP assessed as inhibition of fungal growth by broth microdilution method
Type: functional
Write down the numeric answer in µg/mL and omit the unit.

# count of solved cases: 6
{"Smiles Representation": "O=[N+]([O-])/C=C/c1ccc(O)cc1", "Test Target": "Candida albicans", "Measured Attribute": "MIC80", "Quantitative Result": 4}
{"Smiles Representation": "O=[N+]([O-])/C=C/c1cccc(O)c1", "Test Target": "Candida albicans", "Measured Attribute": "MIC80", "Quantitative Result": 16}
{"Smiles Representation": "COc1ccc(/C=C(\\C)[N+](=O)[O-])cc1", "Test Target": "Candida albicans", "Measured Attribute": "MIC80", "Quantitative Result": 8}
{"Smiles Representation": "CC/C(=C\\c1cccc([N+](=O)[O-])c1)[N+](=O)[O-]", "Test Target": "Candida albicans", "Measured Attribute": "MIC80", "Quantitative Result": 16}
{"Smiles Representation": "COc1ccc(/C=C/[N+](=O)[O-])cc1OC", "Test Target": "Candida albicans", "Measured Attribute": "MIC80", "Quantitative Result": 32}
{"Smiles Representation": "CC/C(=C\\c1ccc(OC)c(OC)c1)[N+](=O)[O-]", "Test Target": "Candida albicans", "Measured Attribute": "MIC80", "Quantitative Result": 32}

Query: Record request: MIC80 value, item "C/C(=C\c1ccc(N(C)C)cc1)[N+](=O)[O-]"
Reply: 32

Query: Record request: MIC80 value, item "CC/C(=C\c1ccc(OC)cc1)[N+](=O)[O-]"
Reply: 4

====

# MIC80 values compiled below
Tested on: Candida tropicalis
Assay: Antifungal activity against Candida tropicalis ATCC 750 assessed as inhibition of fungal growth by broth microdilution method
Format: functional
Write down the numeric answer in µg/mL and omit the unit.

# count of solved cases: 2
{"Smiles Representation": "CC/C(=C\\c1ccc(OC)cc1)[N+](=O)[O-]", "Scale Unit": "µg/mL", "MIC80": 2}
{"Smiles Representation": "C/C(=C\\c1ccc(N(C)C)cc1)[N+](=O)[O-]", "Scale Unit": "µg/mL", "MIC80": 16}

Query: Record request: MIC80 value, item "O=[N+]([O-])/C=C/c1ccc(O)cc1"
Reply: 4

Query: Record request: MIC80 value, item "CC/C(=C\c1cccc([N+](=O)[O-])c1)[N+](=O)[O-]"
Reply: 16

Query: Record request: MIC80 value, item "COc1ccc(/C=C/[N+](=O)[O-])cc1OC"
Reply: 16

Query: Record request: MIC80 value, item "COc1ccc(/C=C(\C)[N+](=O)[O-])cc1"
Reply: 4

Query: Record request: MIC80 value, item "CC/C(=C\c1ccc(OC)c(OC)c1)[N+](=O)[O-]"
Reply: 16

====

Tested on: Candida albicans
Assay: Antifungal activity against Candida albicans ATCC 24433 overexpressing ADCaMDR1-GFP assessed as inhibition of fungal growth by broth microdilution method
Format: functional
Measured Attribute: MIC80

{"Smiles Representation": "COc1ccc(/C=C(\\C)[N+](=O)[O-])cc1", "MIC80": "4 µg/mL"}

Query: Record request: MIC80 value, item "O=[N+]([O-])/C=C/c1cccc(O)c1"
Reply: 4 µg/mL

Query: Record request: MIC80 value, item "C/C(=C\c1ccc(N(C)C)cc1)[N+](=O)[O-]"
Reply: 8 µg/mL

All figures here come from ChEMBL document CHEMBL5113512.
